Where do these numbers come from? They come from the supplement of paper PMC12645437.

- tgt: T1, CRBN, Q96SW2
- T1 chain: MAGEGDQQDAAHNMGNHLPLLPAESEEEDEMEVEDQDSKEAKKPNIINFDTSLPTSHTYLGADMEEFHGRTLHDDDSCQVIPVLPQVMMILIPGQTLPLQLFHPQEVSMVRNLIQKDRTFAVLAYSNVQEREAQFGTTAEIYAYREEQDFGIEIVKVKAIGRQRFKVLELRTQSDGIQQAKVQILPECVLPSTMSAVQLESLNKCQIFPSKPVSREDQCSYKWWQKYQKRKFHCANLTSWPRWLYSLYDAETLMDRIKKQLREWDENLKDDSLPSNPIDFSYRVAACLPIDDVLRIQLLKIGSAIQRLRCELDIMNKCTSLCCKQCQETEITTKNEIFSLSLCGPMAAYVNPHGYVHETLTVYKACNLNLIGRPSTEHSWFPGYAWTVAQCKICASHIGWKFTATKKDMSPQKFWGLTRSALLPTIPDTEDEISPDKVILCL
- measurement_notes: log2 fold change of degron read counts, EGFP-low vs EGFP+ sorted cells (limma voom), compound-induced degradation; higher = more compound-induced degradation of the degron-EGFP fusion; degrons are variants of IKZF1/3 zinc finger 2; compound dose not given here;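 also: pooled lentiviral library of zinc finger degron-EGFP fusions in mCherry-positive Jurkat cells, FACS-sorted after compound exposure, with degron abundance counted by next-generation sequencing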
- experimental_context: Jurkat; 18 h; compound: compound 19 (5-tert-butyl-thalidomide)
The full ranking holds about 8,300 sequences; the median of “log2 fold change of degron read counts, EGFP-low vs EGFP+ sorted cells (limma voom), compound-induced degradation” is about -1.1, and the highest 2% start at about 3.2. The sample as a whole holds a higher share of the highest values than the screen did.
Entry flag: yes if log2 fold change of degron read counts reaches 0.8; no if it does not.

Solved entries:
INSERT INTO measurements (seq_text, category_label) VALUES
  ('LQCEICGFRCTQKGNLLRHIKL [46L_47Q_49E_50I_52G_53F_54R_55C_67L_, Q9UKT9]', 'yes'),
  ('LECEICGFRCTQKGNLLRHIKL [46L_47E_49E_50I_52G_53F_54R_55C_67L_, Q9UKT9]', 'no'),
  ('LYCEICGFMCTQKGNLLRHIKL [46L_47Y_49E_50I_52G_53F_54M_55C_67L_, Q9UKT9]', 'yes'),
  ('LCCEICGFMCTQKGNLLRHIKL [46L_47C_49E_50I_52G_53F_54M_55C_67L_, Q9UKT9]', 'yes');

Now examine the next entry.
Determine whether this sequence has log2 fold change of degron read counts no lower than 0.8: LACEICGFICTQKGNLLRHIKL [46L_47A_49E_50I_52G_53F_54I_55C_67L_, Q9UKT9] yes
